Where a name gives a salt, the structure may show the parent alone.
QUANTITY MEASURED: melting point

Worked examples, 5 molecules total:
MOLECULE	EXPERIMENTAL RESULT
O=C(C=C(O)c1nc[nH]n1)c1occc1Cc1ccc(F)cc1	221 to 223 °C
O=C(C=C(O)c1ncc[nH]1)c1ccc(Cc2ccc(F)cc2)o1 (as salt: hydrochloride)	186 to 191 °C
O=C(C=C(O)c1nn[nH]n1)c1ccc(Cc2ccc(F)cc2)o1	121 to 123 °C
O=C(C=C(O)c1nc[nH]n1)c1ccoc1Cc1ccc(F)cc1	170 to 177 °C
O=C(C=C(O)c1nc[nH]n1)c1ccc(Cc2ccc(F)cc2F)o1	171 to 173 °C

I would be grateful if you could provide melting point for each of the following entries.
1. O=C(O)C(O)=CC(=O)c1cc[nH]c1
2. O=C(O)C(O)=CC(=O)c1ccc(Cc2ccc(F)cc2)o1

Result:
185 to 192 °C
145 to 148 °C

I would be grateful if you could provide melting point for each of the following entries.
1. O=C(C=C(O)c1nn[nH]n1)c1c[nH]cc1CCc1ccccc1
2. CCc1nc(C(O)=CC(=O)c2ccc(Cc3ccc(F)cc3)o2)n[nH]1
3. O=C(C=C(O)c1nc[nH]n1)c1ccc(Cc2ccsc2Cl)o1
4. O=C(C=C(O)c1nn[nH]n1)c1cn(S(=O)(=O)c2ccccc2)cc1CCc1ccccc1

Result:
["228 to 230 °C", "204 to 205 °C", "105 to 106 °C", "178 to 181 °C"]

* * *

Tested on: SIVmac MA239
Assay: Anti-HIV/SIV activity in infected Molt-4 cells, virus amount by RT activity
Assay type: cell-based
Settings: RT activity of supernatant at 5 days postinfection
Give measured Anti-HIV/SIV activity EC50, SIVmac for each item. Keep answers brief.
Answers are plain numbers, in ng/mL.

Cc1cn([C@H]2C=C[C@@H](CO)O2)c(=O)[nH]c1=O 3.4
Nc1ccn([C@@H]2CS[C@H](CO)O2)c(=O)n1 9.1

Alright, here's another compound for you.
Form field Anti-HIV/SIV activity EC50, SIVmac, entry Cc1cn([C@H]2C[C@H](N=[N+]=[N-])[C@@H](CO)O2)c(=O)[nH]c1=O : 0.35

* * *

Give measured melting point for each item. Keep answers brief.

Worked examples, 6 molecules total:
MOLECULE	melting point
CC(C)c1nc(C(O)=CC(=O)c2ccc(Cc3ccc(F)cc3)o2)n[nH]1	146 to 147 °C
O=C(C=C(O)c1nc[nH]n1)c1ccc(Cc2ccccc2Cl)o1	169 to 171 °C
O=C(C=C(O)c1nc[nH]n1)c1ccc(Sc2ccc(F)cc2F)o1	158 to 160 °C
Cc1nc(C(O)=CC(=O)c2ccc(Cc3ccc(F)cc3)o2)n[nH]1	179 to 182 °C
O=C(C=C(O)c1nc[nH]n1)c1ccc(C(O)c2ccc(F)cc2)o1 (centres unmarked)	191 to 192 °C (dec.)
O=C(C=C(O)c1ncccn1)c1cnc(Cc2ccc(F)cc2)o1	97 to 100 °C

I would be grateful if you could provide melting point for each of the following entries.
1. NC(=O)C(O)=CC(=O)c1ccc(Cc2ccc(F)cc2)o1
2. O=C(C=C(O)c1nc[nH]n1)c1c[nH]cc1Cc1ccc(F)cc1
3. Cc1nc(C(O)=CC(=O)c2ccc(Cc3ccc(F)cc3)o2)cs1

Result:
113 to 115 °C
210 to 213 °C
96 to 98 °C

I would be grateful if you could provide melting point for each of the following entries.
1. O=C(Nc1nncs1)C(O)=CC(=O)c1ccc(Cc2ccc(F)cc2)o1
2. CCCc1nc(C(O)=CC(=O)c2ccc(Cc3ccc(F)cc3)o2)n[nH]1

Result:
199 to 201 °C (dec.)
167 to 168 °C

* * *

System: SIVagm SA212
Assay: Anti-HIV/SIV activity in infected Molt-4 cells, virus amount by RT activity
Type: cell-based
Conditions: RT activity of supernatant at 5 days postinfection
QUANTITY MEASURED: Anti-HIV/SIV activity EC50, SIVagm

CC(C)c1nc(COC(N)=O)n(Cc2ccncc2)c1Sc1cc(Cl)cc(Cl)c1 1.5 µg/mL

I would be grateful if you could provide Anti-HIV/SIV activity EC50, SIVagm for each of the following entries.
1. Cc1cn([C@H]2C=C[C@@H](CO)O2)c(=O)[nH]c1=O
2. Nc1ccn([C@@H]2CS[C@H](CO)O2)c(=O)n1
3. Cc1cn([C@H]2C[C@H](N=[N+]=[N-])[C@@H](CO)O2)c(=O)[nH]c1=O

Result:
["0.0045 µg/mL", "0.022 µg/mL", "0.00036 µg/mL"]

* * *

QUANTITY MEASURED: melting point

O=C(C=C(O)c1ccccn1)c1ccc(Cc2ccc(F)cc2)o1 84 to 85 °C
O=C(C=C(O)c1ccccn1)c1cnc(Cc2ccc(F)cc2)o1 108 to 109 °C
O=C(C=C(O)c1nc[nH]n1)c1cc(Cl)c(Cc2ccc(F)cc2)o1 203 to 204 °C
COCc1nc(C(O)=CC(=O)c2ccc(Cc3ccc(F)cc3)o2)n[nH]1 167 to 168 °C
O=C(C=C(O)c1nc[nH]n1)c1ccc(Cc2cccs2)o1 207 to 208 °C
O=C(C=C(O)c1nc[nH]n1)c1cnc(Cc2ccc(F)cc2)o1 200 to 203 °C
Cc1cc(Cc2ccc(F)cc2)oc1C(=O)C=C(O)c1nc[nH]n1 191 to 192 °C
O=C(Nc1nc[nH]n1)C(O)=CC(=O)c1ccc(Cc2ccc(F)cc2)o1 250 °C (dec.)

I would be grateful if you could provide melting point for each of the following entries.
1. O=C(/C=C(\O)c1nc[nH]n1)c1cc(C(=O)O)n(Cc2ccccc2)c1
2. O=C(C=C(O)c1nn[nH]n1)c1ccoc1Cc1ccc(F)cc1

Result:
1: 264 to 265 °C; 2: 150 to 153 °C

* * *

Molecular target: HIV-1 integrase (Human immunodeficiency virus type 1 group M subtype B, UniProt P12497)
QUANTITY MEASURED: IC50 (nM)
One number for each entry, in nM.

Worked examples, 2 molecules total:
MOLECULE	UOM	IC50
O=C(C=C(O)c1nc[nH]n1)c1ccc(Sc2ccc(F)cc2F)o1 [I-70]	nM	1200
COC(=O)C(O)=CC(=O)c1ccc(Cc2ccc(F)cc2)o1 [I-53]	nM	7890

Alright, here's another molecule for you.
Form field IC50, entry O=C(C=C(O)c1nccs1)c1ccc(Cc2ccc(F)cc2)o1 [I-104] : 1760

* * *

Record type: pIC50 measurement. Applies to: UniProt:P12497
Numbers only, as −log10 of the molar value.

I would be grateful if you could provide pIC50 for each of the following entries.
1. O=C(C=C(O)c1nc[nH]n1)c1ccc(Cc2cccs2)o1
2. O=C(C=C(O)c1nc[nH]n1)c1cnc(Cc2ccc(F)cc2)o1
3. O=C(C=C(O)c1nc[nH]n1)c1ccc(Cc2ccccc2Cl)o1

Result:
1. 5.30
2. 5.51
3. 5.79

I would be grateful if you could provide pIC50 for each of the following entries.
1. O=C(C=C(O)c1nc[nH]n1)c1ccc(Cc2ccc(F)cc2F)o1
2. O=C(C=C(O)c1nc[nH]n1)c1ccc(Cc2ccsc2)o1

Result:
[5.89, 5.33]

* * *

Give measured melting point for each item. Keep answers brief.

O=C(O)C(O)=CC(=O)c1ccn(S(=O)(=O)c2ccccc2)c1 186 to 188 °C
O=C(C=C(O)c1nn[nH]n1)c1occc1Cc1ccc(F)cc1 171 to 174 °C
O=C(Nc1ccccc1)C(O)=CC(=O)c1ccc(Cc2ccc(F)cc2)o1 132 to 134 °C
O=C(Nc1ccccn1)C(O)=CC(=O)c1ccc(Cc2ccc(F)cc2)o1 > 250 °C
CCCn1cc(Cc2ccc(F)cc2)c(C(=O)C=C(O)c2nc[nH]n2)c1 210 to 211 °C

I would be grateful if you could provide melting point for each of the following entries.
1. O=C(C=C(O)c1nc[nH]n1)c1ccc(Cc2ccsc2)o1
2. COC(=O)C(O)=CC(=O)c1ccc(Cc2ccc(F)cc2)o1

Result:
["210 to 211 °C", "102 to 104 °C"]

I would be grateful if you could provide melting point for each of the following entries.
1. O=C(Nc1nccs1)C(O)=CC(=O)c1ccc(Cc2ccc(F)cc2)o1
2. Cn1ccnc1C(O)=CC(=O)c1ccc(Cc2ccc(F)cc2)o1

Result:
1: 198 °C (dec.); 2: 56 to 57 °C
